The sequences listed here are annotated with their apparent KD of MS2 coat protein.
System: MS2 coat protein
ASSAY NOTES: apparent KD of MS2 coat protein; higher = weaker reporter binding
REPORTED CONDITIONS: Eterna round: R107; input ligand: none
QUANTITY: apparent KD of MS2 coat protein

- SEQ TEXT: "AAAGGACAUGAGGAUCACCCAUGUCUCGAUACCAGCCGAUCAUCAGGCCCUUGGCAGCGAGACAAGGGUCAUGGAUCGCGGUUCU [Beerusmage]"
  QUANTITY: "apparent KD of MS2 coat protein"
  READING: "11.4 nM"
- SEQ TEXT: "AUGGCGUUGGUGGAGCGGUGAAAUGGCGAUACCAGCGUGGAAACACGCCCUUGGCAGCGCCAAAACAUGAGGAUCACCCAUGUUA [Usti]"
  QUANTITY: "apparent KD of MS2 coat protein"
  READING: "20.3 nM"
- SEQ TEXT: "AGCAAGCAACAUGAGGAUCACCCAUGUGAAGGAGCGCCGAAUAAGGCAGGUAGGUCGCACAUGAAUAAAUCAUGUAAAAGCUUGC [MAT - Exclusion Arginine A - Mod of Eli - D23]"
  QUANTITY: "apparent KD of MS2 coat protein"
  READING: "185 nM"
- SEQ TEXT: "CUCUGAGUGAUCGCUCACUCAGAGGCGGAUACCAGCGAGGUCCAUCGCCCUUGGCAGCCGAACAUGAGGAUCACCCAUGUCGGUA [#1 Same State - Theophylline A Attempt #20 (HarryS)]"
  QUANTITY: "apparent KD of MS2 coat protein"
  READING: "10.3 nM"
- SEQ TEXT: "AAACGUUGCUGCGAUACCAGACAUGAGGAUCACCCAUGUACCGAGGUACCCGAAAGGAAUGUCCCUUGGCAGCGCAGCAACGAAA [MAT - Exclusion Theophlline B - Mod of Eli - D24]"
  QUANTITY: "apparent KD of MS2 coat protein"
  READING: "11.7 nM"

----------
Tested on: MS2 coat protein
ASSAY NOTES: apparent KD of MS2 coat protein, switch ON state; designed switch direction (-1 OFF switch, 1 ON switch): 1; higher = weaker reporter binding
REPORTED CONDITIONS: FMN input: 0 or 200 uM; Eterna round: R93 (includes R88 designs)

- SEQ TEXT: "AAUAUACAUGAGGAUCACCCAUGUUAGGUGGGUCAAGGAUAUCAAAAUAAAUAAAGAACAUGAGAAGGUGAAUAAA [JR_SS001_Sub018]"
  SYSTEM: "MS2 coat protein"
  UNIT OF MEASUREMENT: "µM"
  apparent KD of MS2 coat protein: 0.207
- SEQ TEXT: "AAAAAACAUGAGGAUCACCCAUGUGAGAACAUGGGAGGAUAUACGAGGACGAGAGUCAAGGUAGAAGGCCUAAGAA [Garnet 68]"
  SYSTEM: "MS2 coat protein"
  UNIT OF MEASUREMENT: "µM"
  apparent KD of MS2 coat protein: 0.268
- SEQ TEXT: "CCGAGGAAGAGAGAGGAUAUCCAAAGGAAAACAUGAGGAUCACCCAUGUAAAAGGUAGGAAAUUGGGAGAAGGCUCAAGAGAGAG [salish99-ss2-072]"
  SYSTEM: "MS2 coat protein"
  UNIT OF MEASUREMENT: "µM"
  apparent KD of MS2 coat protein: 0.0387
- SEQ TEXT: "GACCGGGACGCGUAGGAUAUGUAGUGCGCUACAUGAGGAUCACCCAUGUGCGAGACUUCAAAAGAGCAGAAGGGUGUGUGCCCGG [Xegeedri]"
  SYSTEM: "MS2 coat protein"
  UNIT OF MEASUREMENT: "µM"
  apparent KD of MS2 coat protein: 0.0402
- SEQ TEXT: "GAGAAGGAGAGAGAGGAUAUCCAAAGGAAAACAUGAGGAUCACCCAUGUAAAAGGUAGGAAAUUGGGAGAAGGCUCAAGAGAGAG [salish99-ss2-108(!)]"
  SYSTEM: "MS2 coat protein"
  UNIT OF MEASUREMENT: "µM"
  apparent KD of MS2 coat protein: 0.033
- SEQ TEXT: "AAGAAACAUGAGGAUCACCCAUGUACCCAAAAGGGAGGAUAUCCGAAAGAAAGAAAGAAAGGAGAAGGCCCAUGAA [Xerxes II]"
  SYSTEM: "MS2 coat protein"
  UNIT OF MEASUREMENT: "µM"
  apparent KD of MS2 coat protein: 0.0126
- SEQ TEXT: "AAUAUAUUAAGUGAGGAUAUCGAGGAAAAAACAUGAGGAUCACCCAUGUGGGUAAAAAAAAAAAGUGAGAAGGUGCUUAAUAUAU [Samwise Clockwise 10 - Jieux - Same State 2]"
  SYSTEM: "MS2 coat protein"
  UNIT OF MEASUREMENT: "µM"
  apparent KD of MS2 coat protein: 0.0323
- SEQ TEXT: "AAAACACAUGAGGAUCACCCAUGUAGAAAUAUGGGAGGAUAUACGAAAACGAAAGUCAAAGUAGAAGGCCUAAAAG [saturn 3]"
  SYSTEM: "MS2 coat protein"
  UNIT OF MEASUREMENT: "µM"
  apparent KD of MS2 coat protein: 0.0309

----------
System: MS2 coat protein
ASSAY NOTES: apparent KD of MS2 coat protein; higher = weaker reporter binding
REPORTED CONDITIONS: Eterna round: R107; input ligand: theophylline 20 uM
Threshold check on apparent KD of MS2 coat protein: at or above 30 nM gives fulfilled, strictly below gives not fulfilled.

- SEQ TEXT: "AUCUCGUUCAAUAUACCGCCUUGACUAGAUACCAGCAUGGACCCAUGCCCUUGGCAGCUGGACAUGAGGAUCACCCAUGUUUCAG [SSTheo A #27]"
  QUALITATIVE LABEL: "not fulfilled"
- SEQ TEXT: "AAGCAGGGUGUAAAAUAAAUAAUCACUGAUACCAGACUAUGAGAUGUCCCUUGGCAGCAGAAACAUGAGGAUCACCCAUGUAAUA [JR_Nu_ExcTheophyA_Sub029]"
  QUALITATIVE LABEL: "not fulfilled"
- SEQ TEXT: "GGCCUAGCGAGCGCUCGCUAGGCCGCGGAUACCAGCGAGGUCCAUCGCCCUUGGCAGCCGAACAUGAGGAUCACCCAUGUCGGUA [#1 Same State - Theophylline A Attempt #15 (HarryS)]"
  QUALITATIVE LABEL: "not fulfilled"
- SEQ TEXT: "UAAACUACACAUGAGGAUCACCCAUGUGGCCGAGGACCGGUACGGCCGCCACUCGUGUGUUAAUAAAAGAACUGCAAGGUUCUUC [Uslausce]"
  QUALITATIVE LABEL: "fulfilled"
- SEQ TEXT: "UUUGAUAUGACAGAUACCAGCGUGUUGUUGAACAUGAGGAUCACCCAUGUAGUGAUCAAGCGCCCUUGGCAGCUGGUGUGUUAGG [7.P]"
  QUALITATIVE LABEL: "fulfilled"
- SEQ TEXT: "UUUUAAAGCAUGGCGUAUCGGAAAACCGAUACCAGUACAGAAAUGUACCCUUGGCAGCGGAAUUUUACAUGAGGAUCACCCAUGU [Ex Theophylline A 1]"
  QUALITATIVE LABEL: "not fulfilled"
- SEQ TEXT: "UGUAUGGACUGAAGGAGCGGGAAAAUAAGAUGAGGAUCACCCAUCUAAAAGGCGAAAGCCACCCAGGUAGGUCGCAGUCCAUACU"
  QUALITATIVE LABEL: "fulfilled"
- SEQ TEXT: "ACAUGAGGAUCACCCAUGUAUUACCGGGAAGGAGCGCGUAAGGACGCAGGUAGGUCGCUCGGCGUCGUGCUGUAAAGCACGACGA [#1 Same State - Arginine A Attempt #24 (HarryS)]"
  QUALITATIVE LABEL: "not fulfilled"
- SEQ TEXT: "GGUAUGUAUUCGGAAACGAAUGCAUACCAACGAGGACCGGUACGGCCGCCACUCGGCGGCGAUCAACAUGAGGAUCACCCAUGUA [Ex Tryptophan A 3]"
  QUALITATIVE LABEL: "fulfilled"
- SEQ TEXT: "AGAGUCAGACAAAAGUCUGGCUCAGCCGAAGGAGCGUCCGAAAGGACAGGUAGGUCGCGGUUACCUGAGGAUCACCCAGGUUCCU [ArgAS 24 #OpenEnded #AlternativeMS2]"
  QUALITATIVE LABEL: "fulfilled"
- SEQ TEXT: "GGCACAUAGUCGGCCGCCACUACGUGGAGAUCGGAGUACAUGAGGAUCACCCAUGUAUGGAAGGGUAGGACCGGGACUAUGUGCC [Horalka]"
  QUALITATIVE LABEL: "fulfilled"

----------
Tested on: MS2 coat protein
ASSAY NOTES: apparent KD of MS2 coat protein; designed switch direction (-1 OFF switch, 1 ON switch): -1; higher = weaker reporter binding
REPORTED CONDITIONS: input ligand: FMN 200 uM
QUANTITY: apparent KD of MS2 coat protein (nM)

- SEQ TEXT: "GGUGUGAGGCAGGAUAUGCUAUAUGUUAGUAAUGCAGAAGGGUCUACAUGAGGAUCACCCAUGUGUGCGGUAGA [Ex6 #4] (Eterna round: R97, puzzle: Exclusion 6)"
  QUANTITY: "apparent KD of MS2 coat protein"
  READING: 345
- SEQ TEXT: "UUUUUUGGGCAAGGAUAUCCUGUGCGGUUCCGGCUCGUGUCUGUCACAUGAGGAUCACCCAUGUGGGAGAAGGUGCCUGCGGUU [Design 84] (Eterna round: R96, puzzle: Exclusion NG 2)"
  QUANTITY: "apparent KD of MS2 coat protein"
  READING: 15.1
- SEQ TEXT: "CUAAGUUGGUAAGGAUAUCCUACAUUAUUCUGACCCGUGCAAGCUACAUGAGGAUCACCCAUGUGGGAGAAGGUGCGUUAAUGU [Design 5] (Eterna round: R96, puzzle: Exclusion NG 2)"
  QUANTITY: "apparent KD of MS2 coat protein"
  READING: 16.3
- SEQ TEXT: "AGUAUGUCAGGAUAUCUCGGGUAGUCGACAACGGCUACCGAAGAGAAGGGACAUGAGGAUCACCCAUGUACCAU [EX4 B.26] (Eterna round: R97, puzzle: Exclusion 4)"
  QUANTITY: "apparent KD of MS2 coat protein"
  READING: 28.3
- SEQ TEXT: "UGUGUGAGACAGGAUAUGCCGGAUGAAUUGCAGGUAGAAGGGUCUACAUGAGGAUCACCCAUGUGGCCGGUUGG [Ex6 #76] (Eterna round: R97, puzzle: Exclusion 6)"
  QUANTITY: "apparent KD of MS2 coat protein"
  READING: 19.8
